Listed below: IC50 values for each entry.
# experimentalSystem: beta-catenin/TCF4 engagement (Homo sapiens, UniProt P35222)
# Construct: expressed in transfected cells; host or cells: HEK293
# protocol: Nano-BRET target engagement assay (B-cat-Halo & TCF4-Luc in HEK293 cells)
# Assay type: cell-based
# statedConditions: read-out: NanoBRET Abs IC50

>  <compound>
CC(=O)N1CCC[C@]12CC=CCCCC1(CCCC=CCCCOC(=O)N3CC[C@@](C(=O)N[C@@H](Cc4ccccc4C(F)(F)F)C(=O)N[C@@H](Cc4csc5ccccc45)C(=O)N[C@@H](C)C(N)=O)(C3)NC(=O)[C@H](CC(C)C)NC(=O)[C@H](Cc3ccccc3)NC(=O)[C@H](C)NC(=O)[C@H](CO)NC(=O)[C@H](Cc3cccc(C(=O)O)c3)NC(=O)[C@H](CC(=O)O)NC1=O)NC(=O)[C@H](CC(C)(C)C)NC(=O)[C@H](CC(=O)O)NC2=O (stereo partly drawn)

>  <result>
4.8 µM

$$$$
>  <compound>
CC(=O)N1CCC[C@]12CC=CCCCC1(CCCC=CCCCCOC(=O)N3CC[C@@](C(=O)N[C@@H](Cc4ccsc4)C(=O)N[C@@H](Cc4csc5ccccc45)C(=O)N[C@@H](CC(N)=O)C(=O)N[C@@H](C)C(N)=O)(C3)NC(=O)[C@H](CC(N)=O)NC(=O)[C@H](Cc3ccccc3)NC(=O)[C@H](C)NC(=O)[C@H](C)NC(=O)[C@H](CC(=O)O)NC(=O)[C@H](CC(=O)O)NC1=O)NC(=O)[C@H](CC(C)(C)C)NC(=O)[C@H](CC(=O)O)NC2=O (stereo partly drawn)

>  <result>
30.2 µM

$$$$

Consider the record given below.
Task item: Given the compound CC(=O)N1CCC[C@]12CC=CCCCC1(CCCC=CCCCOC(=O)N3CC[C@@](C(=O)N[C@@H](Cc4ccsc4)C(=O)N[C@@H](Cc4csc5ccccc45)C(=O)N[C@@H](CCC(N)=O)C(N)=O)(C3)NC(=O)[C@H](CC(N)=O)NC(=O)[C@H](Cc3cccc(C(=O)O)c3)NC(=O)[C@H](C)NC(=O)[C@H](C)NC(=O)[C@H](Cc3c[nH]cn3)NC(=O)[C@H](CC(=O)O)NC1=O)NC(=O)[C@H](CC(C)(C)C)NC(=O)[C@H](CC(=O)O)NC2=O (stereo partly drawn) [I-2119] , write its reported IC50.
Reply: > 20 µM

----------
Listed below: IC50 values for each entry.
# experimentalSystem: full-length beta-Catenin (Uniprot ID P35222) (Homo sapiens, UniProt P35222)
# Construct: 10 nM full-length beta-Catenin (Uniprot ID P35222)
# protocol: Fluorescence polarization IC50 (beta-catenin / 5FAM-TCF4 10-53 competition)
# Assay type: binding
# statedConditions: fluorescence polarization; read-out: beta-Catenin FP IC50
Please answer in the form of a number followed by its unit of measurement.

>  <molecule>
CC[C@H](C)[C@@H]1NC(=O)[C@H](CC(=O)O)NC(=O)[C@]2(CC=CCCCC3(CCCC=CCCCCCC[C@@](C)(C(=O)N[C@@H](Cc4ccccc4)C(=O)N[C@@H](Cc4csc5ccccc45)C(=O)N[C@@H](CCC(N)=O)C(N)=O)NC(=O)[C@H](CC(N)=O)NC(=O)[C@H](Cc4ccccc4)NC(=O)[C@H](C)NC(=O)[C@H](C)NC(=O)[C@H](CC(=O)O)NC(=O)[C@H](CC(=O)O)NC3=O)NC1=O)CCCN2C(C)=O (stereo partly drawn) [I-468]

>  <IC50>
27 nM

$$$$
>  <molecule>
CC(=O)N1CCC[C@]12CC=CCCCC1(CCCC=CCCCOC(=O)N3CC[C@@](C(=O)N[C@@H](Cc4ccsc4)C(=O)N[C@@H](Cc4csc5ccccc45)C(=O)N[C@@H](CCO)C(N)=O)(C3)NC(=O)[C@H](CC(C)C)NC(=O)[C@H](Cc3ccccc3)NC(=O)[C@H](C)NC(=O)[C@H](C)NC(=O)[C@H](CC(=O)O)NC(=O)[C@H](CC(=O)O)NC1=O)NC(=O)[C@H]([C@@H](C)O)NC(=O)[C@H](CC(=O)O)NC2=O (stereo partly drawn)

>  <IC50>
30 nM

$$$$

Task item: Given the molecule CC(=O)N1CCC[C@]12CC=CCCCC1(CCCC=CCCCOC(=O)N3CC[C@@](C(=O)N[C@@H](Cc4ccccc4Cl)C(=O)N[C@@H](Cc4csc5ccccc45)C(=O)N[C@@H](CCC(N)=O)C(N)=O)(C3)NC(=O)[C@H]([C@@H](C)O)NC(=O)[C@H](Cc3ccccc3)NC(=O)CNC(=O)C(C)(C)NC(=O)[C@H](CN(CC(=O)O)CC(F)(F)F)NC(=O)[C@H](CC(=O)O)NC1=O)NC(=O)[C@H](CC(C)(C)C)NC(=O)[C@H](CC(=O)O)NC2=O (stereo partly drawn) , write its reported IC50.
Reply: 32 nM

----------
# experimentalSystem: beta-catenin/TCF4 engagement (Homo sapiens, UniProt P35222)
# Construct: expressed in transfected cells; host or cells: HEK293
# Sequence (P35222 1-781): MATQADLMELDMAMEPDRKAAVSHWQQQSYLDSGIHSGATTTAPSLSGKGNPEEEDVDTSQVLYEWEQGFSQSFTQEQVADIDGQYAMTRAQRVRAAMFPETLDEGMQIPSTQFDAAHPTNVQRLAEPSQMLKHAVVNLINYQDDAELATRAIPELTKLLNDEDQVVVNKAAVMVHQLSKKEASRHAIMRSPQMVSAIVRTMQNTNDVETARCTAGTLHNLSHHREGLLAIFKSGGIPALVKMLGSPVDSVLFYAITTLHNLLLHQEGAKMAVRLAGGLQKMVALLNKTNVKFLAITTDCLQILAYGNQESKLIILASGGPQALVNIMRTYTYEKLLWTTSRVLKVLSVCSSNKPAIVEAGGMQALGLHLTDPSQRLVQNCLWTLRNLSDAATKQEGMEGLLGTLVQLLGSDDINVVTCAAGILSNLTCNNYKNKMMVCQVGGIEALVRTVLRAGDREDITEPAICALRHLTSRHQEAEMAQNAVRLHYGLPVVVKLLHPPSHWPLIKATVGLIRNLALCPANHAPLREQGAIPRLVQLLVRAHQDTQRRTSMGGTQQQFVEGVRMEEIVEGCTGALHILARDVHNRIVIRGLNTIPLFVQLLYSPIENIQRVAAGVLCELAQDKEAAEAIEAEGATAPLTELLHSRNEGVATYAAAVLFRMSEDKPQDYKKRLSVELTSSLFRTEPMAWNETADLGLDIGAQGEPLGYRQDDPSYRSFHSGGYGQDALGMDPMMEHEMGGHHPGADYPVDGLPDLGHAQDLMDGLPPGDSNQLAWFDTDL
# protocol: Nano-BRET target engagement assay (B-cat-Halo & TCF4-Luc in HEK293 cells)
# Format: cell-based
# statedConditions: absolute IC50; read-out: NanoBRET Abs IC50
readout: pIC50
// pIC50 is dimensionless: -log10 of concentration (M)

Here is how some compounds turned out for pIC50.
>  <compound>
CC(=O)N1CCC[C@]12CC=CCCCC1(CCCC=CCCCOC(=O)N3CC[C@@](C(=O)N[C@@H](Cc4ccsc4)C(=O)N[C@@H](Cc4csc5ccccc45)C(=O)N[C@@H](C)C(N)=O)(C3)NC(=O)[C@H](CC(C)C)NC(=O)[C@H](Cc3ccccc3)NC(=O)[C@H](C)NC(=O)C(C)(C)NC(=O)[C@H](Cc3ccc(F)c(C(=O)O)c3)NC(=O)[C@H](CC(=O)O)NC1=O)NC(=O)[C@H](CC(C)(C)C)NC(=O)[C@H](CC(=O)O)NC2=O (stereo partly drawn)

>  <pIC50>
5.49

$$$$
>  <compound>
CC(=O)N1CCC[C@]12CC=CCCCC1(CCCC=CCCCOC(=O)N3CC[C@@](C(=O)N[C@@H](Cc4ccccc4C(F)(F)F)C(=O)N[C@@H](Cc4csc5ccccc45)C(=O)N[C@@H](CCC(=O)N(C)C)C(N)=O)(C3)NC(=O)[C@H](Cc3ccccc3)NC(=O)[C@H](Cc3ccccc3)NC(=O)[C@H](C)NC(=O)[C@H](C)NC(=O)[C@H](Cc3cccc(C(=O)O)c3)NC(=O)[C@H](CC(=O)O)NC1=O)NC(=O)[C@H](CC(C)(C)C)NC(=O)[C@H](CC(=O)O)NC2=O (stereo partly drawn)

>  <pIC50>
5.36

$$$$

Consider the record given below.
Task item: Given the compound CC(=O)N1CCC[C@]12CC=CCCCC1(CCCC=CCCCOC(=O)N3CC[C@@](C(=O)N[C@@H](Cc4ccccc4)C(=O)N[C@@H](Cc4csc5ccccc45)C(=O)N[C@@H](CO)C(N)=O)(C3)NC(=O)[C@H]([C@@H](C)O)NC(=O)[C@H](Cc3ccccc3)NC(=O)[C@H](CC(C)C)NC(=O)[C@H](C)NC(=O)[C@H]([C@@H](C)O)NC(=O)[C@H](CC(=O)O)NC1=O)NC(=O)[C@H](CC(C)(C)C)NC(=O)[C@H](CC(=O)O)NC2=O (stereo partly drawn) , write its reported pIC50.
Reply: 4.64
